# key: entry, value: selectivity ratio
experiment: Selectivity index, ratio of CC50 for African green monkey Vero cells to EC50 for Chikungunya virus Indian Ocean 889 infected in African green monkey Vero cells; assay type: toxicity; details: read-out: Ratio CC50/EC50

[
  {
    "Molecule Smiles": "CC(C)c1ccc(/C=N/NC(=O)/C=C/c2ccc(C(C)(C)C)cc2)cc1",
    "selectivity ratio": 3.5
  },
  {
    "Molecule Smiles": "CC(C)(C)c1ccc(/C=C/C(=O)N/N=C/c2ccccc2)cc1",
    "selectivity ratio": 3.8
  },
  {
    "Molecule Smiles": "Cc1ccc(/C=N/NC(=O)/C=C/c2ccc(C(C)(C)C)cc2)cc1",
    "selectivity ratio": 21.4
  },
  {
    "Molecule Smiles": "C/C(=N\\NC(=O)/C=C/c1ccc(C(C)(C)C)cc1)c1cnccn1",
    "selectivity ratio": 1.2
  },
  {
    "Molecule Smiles": "CC(C)(C)c1ccc([C@@H]2C[C@H]2C(=O)N/N=C/c2ccc(C(F)(F)F)cc2)cc1",
    "selectivity ratio": 2.1
  },
  {
    "Molecule Smiles": "CCOc1ccc(/C=N/NC(=O)[C@@H]2C[C@H]2c2ccc(C(C)(C)C)cc2)cc1OCC",
    "selectivity ratio": 14
  },
  {
    "Molecule Smiles": "CC(C)(C)c1ccc(/C=C/C(=O)NCc2ccc(C(F)(F)F)cc2)cc1",
    "selectivity ratio": 0.9
  },
  {
    "Molecule Smiles": "COc1ccc(/C(C)=N/NC(=O)[C@@H]2C[C@H]2c2ccccc2)cc1",
    "selectivity ratio": 13
  },
  {
    "Molecule Smiles": "CCOc1ccc(/C=N/NC(=O)/C=C/c2ccc(C)cc2)cc1OCC",
    "selectivity ratio": "> 2.5"
  },
  {
    "Molecule Smiles": "Cc1ccc(/C=N/NC(=O)/C=C/c2ccccc2)cc1",
    "selectivity ratio": 0.9
  }
]

###

assay: Cytotoxicity against African green monkey Vero cells assessed as decrease in cell viability after 5 days by MTS/PMS method; type: cell-based; settings: chlorocebus sabaeus
Below, each entry is listed with its recorded CC50 at 120 h.
Test Readout: CC50 at 120 h

[
  {
    "Compound": "C/C(=N\\NC(=O)[C@@H]1C[C@H]1c1ccccc1)c1ccc(C2CCCCC2)cc1",
    "Measurement": "101 µM"
  },
  {
    "Compound": "CC(C)(C)c1ccc(/C=C/C(=O)NCc2ccc(-c3ccccc3)cc2)cc1",
    "Measurement": "4.3 µM"
  },
  {
    "Compound": "Cc1ccc(/C=N/NC(=O)/C=C/c2ccc(C(C)(C)C)cc2)cc1",
    "Measurement": "124 µM"
  },
  {
    "Compound": "CC(C)c1ccc(/C=N/NC(=O)/C=C/c2ccc(C(C)(C)C)cc2)cc1",
    "Measurement": "7.4 µM"
  },
  {
    "Compound": "CC(C)(C)c1ccc(/C=C/C(=O)NCc2ccc(C(F)(F)F)cc2)cc1",
    "Measurement": "115 µM"
  },
  {
    "Compound": "CCOc1ccc(/C=N/NC(=O)/C=C/c2ccc(C)cc2)cc1OCC",
    "Measurement": "> 284 µM"
  },
  {
    "Compound": "Cc1ccc(/C=N/NC(=O)/C=C/c2ccccc2)cc1",
    "Measurement": "84.4 µM"
  },
  {
    "Compound": "CCN(CC)CCCC(C)Nc1ccnc2cc(Cl)ccc12 (stereo not drawn)",
    "Measurement": "89 µM"
  }
]

###

List of selectivity ratio values.
assay: Selectivity index, ratio of CC50 for African green monkey Vero cells to EC50 for Chikungunya virus Indian Ocean 889 infected in African green monkey Vero cells; assay type: toxicity; settings: read-out: Ratio CC50/EC50

[
  {
    "Molecule Smiles": "C/C(=N\\NC(=O)[C@@H]1C[C@H]1c1ccccc1)c1ccc(C2CCCCC2)cc1",
    "selectivity ratio": 3.1
  },
  {
    "Molecule Smiles": "CCOc1ccc(/C=N/NC(=O)/C=C/c2ccc(C(C)(C)C)cc2)cc1OCC",
    "selectivity ratio": 32
  },
  {
    "Molecule Smiles": "COc1ccc(/C=N/NC(=O)/C=C/c2ccc(C(C)(C)C)cc2)cc1",
    "selectivity ratio": 19.8
  },
  {
    "Molecule Smiles": "O=C(N/N=C/c1ccc(O)cc1)[C@@H]1C[C@H]1c1ccccc1",
    "selectivity ratio": 2.3
  }
]

###

Catalogue of CC50 at 120 h readings, one per entry.
test: Cytotoxicity against African green monkey Vero cells assessed as decrease in cell viability after 5 days by MTS/PMS method; format: cell-based; conditions: chlorocebus sabaeus
Test Readout: CC50 at 120 h (µM)

[
  {
    "Molecule Smiles": "COc1ccc(/C=N/NC(=O)/C=C/c2ccc(C(C)(C)C)cc2)cc1",
    "Relation Symbol": "=",
    "Measurement": 117
  },
  {
    "Molecule Smiles": "CC(C)(C)c1ccc([C@@H]2C[C@H]2C(=O)N/N=C/c2ccc(C(F)(F)F)cc2)cc1",
    "Relation Symbol": "=",
    "Measurement": 30
  },
  {
    "Molecule Smiles": "COc1ccc(/C(C)=N/NC(=O)[C@@H]2C[C@H]2c2ccccc2)cc1",
    "Relation Symbol": "=",
    "Measurement": 72
  },
  {
    "Molecule Smiles": "CC(C)(C)c1ccc(/C=C/C(=O)N/N=C/c2ccc(O)cc2)cc1",
    "Relation Symbol": "=",
    "Measurement": 7.3
  },
  {
    "Molecule Smiles": "C/C(=N\\NC(=O)/C=C/c1ccc(C(C)(C)C)cc1)c1cnccn1",
    "Relation Symbol": ">",
    "Measurement": 310
  },
  {
    "Molecule Smiles": "CCOc1ccc(/C=N/NC(=O)[C@@H]2C[C@H]2c2ccc(C(C)(C)C)cc2)cc1OCC",
    "Relation Symbol": "=",
    "Measurement": 72
  },
  {
    "Molecule Smiles": "O=C(N/N=C/c1ccc(O)cc1)[C@@H]1C[C@H]1c1ccccc1",
    "Relation Symbol": "=",
    "Measurement": 15
  },
  {
    "Molecule Smiles": "CC(C)(C)c1ccc(/C=C/C(=O)N/N=C/c2ccccc2)cc1",
    "Relation Symbol": "=",
    "Measurement": 22.1
  },
  {
    "Molecule Smiles": "CCOc1ccc(/C=N/NC(=O)/C=C/c2ccc(C(C)(C)C)cc2)cc1OCC",
    "Relation Symbol": "=",
    "Measurement": 101
  },
  {
    "Molecule Smiles": "CC(C)(C)c1ccc(/C=C/C(=O)N/N=C/c2ccc(-c3ccccc3)cc2)cc1",
    "Relation Symbol": "=",
    "Measurement": 20.1
  }
]

Data provenance: ChEMBL document CHEMBL4184212
